# system_under_test: PALB2C (Homo sapiens, UniProt Q86YC2)
# Construct: C terminal part of Palb2 (aa 835-1186); His tag (C); 3C protease site; host or cells: Hi5 insect cells (virus produced and amplified in Sf9)
# Sequence (Q86YC2 835-1186): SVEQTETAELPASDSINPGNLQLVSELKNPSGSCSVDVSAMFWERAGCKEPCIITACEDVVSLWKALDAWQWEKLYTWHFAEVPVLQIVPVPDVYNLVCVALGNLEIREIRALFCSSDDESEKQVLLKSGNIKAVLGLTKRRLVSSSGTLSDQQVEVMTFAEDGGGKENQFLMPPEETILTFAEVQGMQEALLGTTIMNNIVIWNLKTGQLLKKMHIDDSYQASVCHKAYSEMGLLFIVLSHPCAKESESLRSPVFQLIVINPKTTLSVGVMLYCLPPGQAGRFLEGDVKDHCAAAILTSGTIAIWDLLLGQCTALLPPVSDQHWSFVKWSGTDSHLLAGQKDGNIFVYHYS
# assay_notes: Displacement polarization assay (competition with FLU-GG-[…])
# setup_conditions: truncated BRCA2 peptides; dark peptide 10 μM, probe FLU-GG-[…] 10 nM; 20 min RT, 25 °C; competitive binding fit; PALB2C source Hi5 (Figure 2B); N = 1-5; read-out: KD (other peptides)
pKd: −log10 of the molar value.
Rule: pKd of 5 or more gives Met; anything lower gives Not met.

Answer whether pKd of H-GPISLNWFE-NH2 [Peptide P12] is greater than or equal to 5.
Not met

Answer whether pKd of H-GPISLNWFEEL-NH2 [Peptide P7] is greater than or equal to 5.
Not met

Answer whether pKd of H-KADLGPISLNWFE-NH2 [Peptide P14] is greater than or equal to 5.
Not met

Answer whether pKd of H-KADLGPISLNWFEEL-NH2 [Peptide P9] is greater than or equal to 5.
Met

* * *

# system_under_test: PALB2C (Homo sapiens, UniProt Q86YC2)
# Construct: C terminal part of Palb2 (aa 835-1186); His tag (C); 3C protease site; host or cells: Hi5 insect cells (virus produced and amplified in Sf9)
# assay_notes: Displacement polarization assay (competition with FLU-GG-[…])
# setup_conditions: alanine scan of BRCA2 21-35; dark peptide 10 μM, probe FLU-GG-[…] 10 nM; 20 min RT, 25 °C; competitive binding fit; N = 1-4; read-out: KD (alanine scan)
// boundary case: Kd equal to 6 µM maps to no; strictly smaller maps to yes

# check: Kd < 6 µM for H-KADLGPASLNWFEEL-NH2 [Peptide P33]
yes

# check: Kd < 6 µM for H-KADLGPISLNWFEAL-NH2 [Peptide P28, H-KADLGPISLNWFEAL-NH2]
no

# check: Kd < 6 µM for H-KADLGPISLNAFEEL-NH2 [Peptide P25]
yes

# check: Kd < 6 µM for H-KAALGPISLNWFEEL-NH2 [Peptide P29]
yes

# check: Kd < 6 µM for H-KADLGPIALNWFEEL-NH2 [Peptide P34]
yes

# check: Kd < 6 µM for H-KADLGPISANWFEEL-NH2 [Peptide P35]
no

# check: Kd < 6 µM for H-KADLGPISLNWAEEL-NH2 [Peptide P26]
no

# check: Kd < 6 µM for H-KADLGPISLNWFAEL-NH2 [Peptide P27]
yes

# check: Kd < 6 µM for H-KADLGPISLAWFEEL-NH2 [Peptide P36]
yes

# check: Kd < 6 µM for H-KADLGAISLNWFEEL-NH2 [Peptide P32]
yes

The measured values listed here are drawn from paper PMC12090178.
